# experimental.target: Hck (UniProt P08631)
# Sequence (P08631 whole entry, looked up): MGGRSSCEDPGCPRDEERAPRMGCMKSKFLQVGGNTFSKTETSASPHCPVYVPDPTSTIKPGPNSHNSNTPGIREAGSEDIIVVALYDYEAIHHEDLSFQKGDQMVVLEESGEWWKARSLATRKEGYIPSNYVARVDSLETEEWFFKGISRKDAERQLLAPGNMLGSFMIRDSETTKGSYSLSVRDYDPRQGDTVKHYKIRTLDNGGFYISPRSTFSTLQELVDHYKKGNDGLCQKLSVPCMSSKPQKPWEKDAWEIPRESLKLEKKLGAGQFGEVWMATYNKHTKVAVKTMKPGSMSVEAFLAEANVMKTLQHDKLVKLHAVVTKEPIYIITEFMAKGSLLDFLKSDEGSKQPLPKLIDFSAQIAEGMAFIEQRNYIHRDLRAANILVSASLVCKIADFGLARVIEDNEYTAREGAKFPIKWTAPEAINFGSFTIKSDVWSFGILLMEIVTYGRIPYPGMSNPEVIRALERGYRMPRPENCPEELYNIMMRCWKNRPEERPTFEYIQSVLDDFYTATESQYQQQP
# experiment.summary: phosphorylation enrichment, bacterial display (enrichment ratio); higher = better substrate or ligand; peptides without Tyr show the background
assay.metric: phosphorylation enrichment
I only need the number, thanks.

Reference set, count: 2
record.sequence: GCVRMYELVHR [GLE1_Y135]
phosphorylation enrichment: 1.64
--
record.sequence: EWKNNCPRLRE [OPA1_Y582_Y582C]
phosphorylation enrichment: 0.472

Endpoint output: phosphorylation enrichment of YSTPPYLLEAA [BRIP1_Y921_S919P] . Value?
1.61

Entry to check: ISKKIYDTIHD [CTNNA3_Y614]
0.742

Would you kindly repeat that for GHLFANDWISI [BEST1_Y227_Y227N_YF] ?
0.502

Now this one: ICFSDYVEVAD [PHACTR1_Y525_R521C]
0.698

And for EPSVDCCVVKI [CAD_Y735_Y735C] ?
0.371

Check KGERGYPGTPG [COL4A1_Y348] too.
0.38

One more sequence: SEPSGYQDNIA [DES_Y363_A360P]
0.505

Ok, now LSDGPYSSPYE [EPOR_Y485_N487S]
0.739

What about SSQTIYQRVEG [TFR2_Y23_V22I] ?
2.71

Also FTRNFYVWAVL [CYBA_Y88_R90W_YF] ?
0.473

Do the same for SSSNPYSTVTV [ACTN2_Y599_M604V] please
0.82

Let us now turn to SCRENYSDSEE [LEMD3_Y258]
0.502

====

# Tested on: c-Abl (mouse)
# experiment.summary: phosphorylation enrichment, bacterial display (enrichment ratio); higher = better substrate or ligand; peptides without Tyr show the background
assay.metric: phosphorylation enrichment
Lab note: jot the number down without any unit.

record.sequence: RLLRGYRQDAF [HLA-A_Y137_F133L_YF]
phosphorylation enrichment: 0.807
//
record.sequence: VSGIPYSQPKQ [NEU1_Y251_G252S]
phosphorylation enrichment: 0.416
//
record.sequence: RRIHSYRGFLW [VHL_Y112_H115Y_YF]
phosphorylation enrichment: 0.426
//
record.sequence: LLANAYIYDVQ [L1CAM_Y418_V421D]
phosphorylation enrichment: 0.538

Give the reported phosphorylation enrichment for TLNTNYHLPPS [MT-ATP8_Y33_M28T] (system: c-Abl (mouse)).
0.655

Then what about the sequence TEVRRYVLPLN [RPE65_Y368_P363T] ?
0.526

Ok, now MYVKSYTIHYS [F5_Y2153]
0.674

Moving on to AQVDTYCRHNF [HLA-DRB1_Y107_A103Q_YF]
0.59

Could you do the same for ENELTYYCCKK [CD59_Y86] , please?
1.26

For VCHELYNTIRD [PBRM1_Y54] then?
0.978

====

Measured phosphorylation enrichment by item
# experimental.target: FGFR1 (UniProt P11362)
# Sequence (P11362 whole entry, looked up): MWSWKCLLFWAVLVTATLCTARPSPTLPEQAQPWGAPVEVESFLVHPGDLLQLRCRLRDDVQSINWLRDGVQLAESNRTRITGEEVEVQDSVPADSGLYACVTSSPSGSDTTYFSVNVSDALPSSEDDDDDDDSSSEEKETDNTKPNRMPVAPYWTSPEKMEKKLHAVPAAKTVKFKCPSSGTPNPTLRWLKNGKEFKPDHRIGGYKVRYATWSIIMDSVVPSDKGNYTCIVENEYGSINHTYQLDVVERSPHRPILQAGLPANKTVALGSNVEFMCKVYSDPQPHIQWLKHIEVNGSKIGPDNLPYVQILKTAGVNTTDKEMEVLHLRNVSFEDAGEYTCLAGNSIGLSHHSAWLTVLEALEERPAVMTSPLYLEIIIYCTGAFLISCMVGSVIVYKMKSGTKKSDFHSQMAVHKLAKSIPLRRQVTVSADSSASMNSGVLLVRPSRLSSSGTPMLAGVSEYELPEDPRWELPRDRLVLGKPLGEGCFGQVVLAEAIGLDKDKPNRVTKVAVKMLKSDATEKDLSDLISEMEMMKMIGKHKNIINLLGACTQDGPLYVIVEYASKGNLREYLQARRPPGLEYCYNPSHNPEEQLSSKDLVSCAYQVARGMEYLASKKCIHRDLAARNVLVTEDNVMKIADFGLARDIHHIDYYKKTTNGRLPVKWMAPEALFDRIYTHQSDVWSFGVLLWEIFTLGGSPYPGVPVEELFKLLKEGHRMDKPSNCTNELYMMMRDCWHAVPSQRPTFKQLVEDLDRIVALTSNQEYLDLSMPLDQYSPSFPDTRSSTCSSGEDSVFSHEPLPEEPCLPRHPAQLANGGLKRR
# experiment.summary: phosphorylation enrichment, bacterial display (enrichment ratio); higher = better substrate or ligand; peptides without Tyr show the background
Just the number, please, no unit after it.

Example cases with answers are listed next.
record.sequence: EQAERYDDMAA [YWHAG_Y20]
reported.measurement: 0.547

record.sequence: EHTTLYSNNST [KANSL1_Y223]
reported.measurement: 0.356

record.sequence: IDPYIYTPFGS [CYP3A4_Y432]
reported.measurement: 2.44

record.sequence: CTTIHYNFMSN [TP53_Y234_C238S_YF]
reported.measurement: 0.561

record.sequence: AALSAYAAQRP [PTPRN2_Y249]
reported.measurement: 0.406

Looking for the measured phosphorylation enrichment of ESFCLYPPVPQ [CYP4B1_Y377_R375C] , can you help?
0.539

Also, LLKAGYQGVLR [TTPA_Y100_H101Q] please.
0.67

====

# System: c-Src
# experiment.summary: phosphorylation enrichment, bacterial display (enrichment ratio); higher = better substrate or ligand; peptides without Tyr show the background
Give satisfied when the value for phosphorylation enrichment is at least 0.6. Give not satisfied when it is less.

Example entries begin here.
record.sequence: TDISLYPSGGT [TENM4_Y399_V396I]
experimental.target: c-Src
class.name: not satisfied
--
record.sequence: KNNDGNIDYAE [MCFD2_Y135_Y135N]
experimental.target: c-Src
class.name: not satisfied
--
record.sequence: SVMAEYGLFGA [VSX2_Y219_YF]
experimental.target: c-Src
class.name: satisfied

Given KDHPDYKYQLR [SOX10_Y171_P175L] , state whether its phosphorylation enrichment is at least 0.6.
not satisfied

Request: ICFSDYVEVAD [PHACTR1_Y525_R521C]
not satisfied

Try LVRPPYSYSAL [FOXI1_Y126] next.
satisfied

Same lookup for IVEFAYNDKAI [PUM3_Y259_YF] , please.
not satisfied

Further, for WQQQSYLDSVI [CTNNB1_Y30_G34V] ?
not satisfied

Can you check KVALVYGQMNQ [ATP5F1B_Y269_E274Q] next?
satisfied

====

# experimental.target: c-Src SH2;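 note: peptide library displayed on the E. coli surface as eCPX fusions, selected cells deep-sequenced, score is each peptide's frequency after selection divided by its frequency in the input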
# experiment.summary: SH2 binding enrichment of the phosphorylated peptide, bacterial display (enrichment ratio); higher = better substrate or ligand; peptides without Tyr show the background
assay.metric: SH2 binding enrichment

Take a look at these entries with their results.
record.sequence: EAEPFYCSLRD [NPHS1_Y1139_R1140C_YF]
SH2 binding enrichment: 0.668
--
record.sequence: VIECSYTSADG [DHCR7_Y382]
SH2 binding enrichment: 1.63
--
record.sequence: APRKVYDTQDD [ZFPL1_Y215_R218Q]
SH2 binding enrichment: 0.501
--
record.sequence: RLSELYLRRNR [CFAP410_Y68]
SH2 binding enrichment: 0.344

For the sequence shown here, CTLTHYKSAVK [ASNS_Y555_R550C] , give the reported SH2 binding enrichment.
0.585

Next sequence up: KRGIDYILRHM [FRMD1_Y225]
1.68

Next sequence: TLNTNYHLPPS [MT-ATP8_Y33_M28T]
0.483

Request: GFPVHYTDMSN [DNMT3B_Y815_V818M]
3.25

Follow-up entry: YETDYYRKGGK [INSR_Y1190]
0.622

Again, but for LSIQCYLRASD [HMGCS2_Y262_L266S]
0.443

Also FLAVGYHKPRI [IDS_Y225_H229R] , if possible.
1.64

Follow-up item: DYLEKYYKFGS [NNMT_Y24]
0.623

Moving on to the next sequence: RSGIFYKPESL [L2HGDH_Y103_H98R_YF]
0.572

Then what about the sequence AEMKRYAESSS [RAI14_Y869] ?
0.448

====

# experimental.target: Fes (UniProt P07332)
# Sequence (P07332 whole entry, looked up): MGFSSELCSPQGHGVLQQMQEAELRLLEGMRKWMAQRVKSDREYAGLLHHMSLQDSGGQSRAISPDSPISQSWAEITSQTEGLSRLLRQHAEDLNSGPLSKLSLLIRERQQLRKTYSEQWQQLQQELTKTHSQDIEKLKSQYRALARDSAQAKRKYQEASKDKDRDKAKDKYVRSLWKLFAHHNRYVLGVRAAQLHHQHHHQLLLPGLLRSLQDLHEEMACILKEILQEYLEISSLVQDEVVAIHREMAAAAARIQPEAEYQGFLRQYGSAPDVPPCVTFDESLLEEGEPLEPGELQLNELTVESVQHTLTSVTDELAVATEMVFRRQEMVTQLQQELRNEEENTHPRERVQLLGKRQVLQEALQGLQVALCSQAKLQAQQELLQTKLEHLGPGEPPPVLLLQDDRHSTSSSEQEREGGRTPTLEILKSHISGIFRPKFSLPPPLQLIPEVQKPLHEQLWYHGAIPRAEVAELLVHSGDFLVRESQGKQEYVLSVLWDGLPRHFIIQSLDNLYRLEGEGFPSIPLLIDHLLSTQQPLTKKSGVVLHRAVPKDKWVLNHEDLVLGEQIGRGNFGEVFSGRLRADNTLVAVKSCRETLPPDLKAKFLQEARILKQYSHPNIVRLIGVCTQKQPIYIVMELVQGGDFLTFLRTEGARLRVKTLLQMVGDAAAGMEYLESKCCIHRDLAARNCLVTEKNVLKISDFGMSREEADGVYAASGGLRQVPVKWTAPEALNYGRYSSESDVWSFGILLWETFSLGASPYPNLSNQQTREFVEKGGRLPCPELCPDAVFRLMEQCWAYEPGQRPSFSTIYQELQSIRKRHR
# experiment.summary: phosphorylation enrichment, bacterial display (enrichment ratio); higher = better substrate or ligand; peptides without Tyr show the background
assay.metric: phosphorylation enrichment
// response body must contain only the number

Example entries begin here.
record.sequence: KGEDFYCVTYH [FHL1_Y149_C153Y]
reported.measurement: 1.5
//
record.sequence: RRKRAYVEIEY [MAK16_Y282_Q277R]
reported.measurement: 1.21

Quick check: phosphorylation enrichment of RAILNYIASKF [GSTA3_Y74_YF] ?
1.73

Also check ADLTEYLSTHF [UQCRC1_Y219_YF]
1.35

Next entry: KKFVPYYDLFM [IPO5_Y530_E525K]
1.05

Also need SAEEDYIADAK [KCNT1_Y876_M877I] , thanks.
1.48

Same question, CTTIHYNYMCN [TP53_Y234] this time
0.903

====

# experimental.target: FGFR1 (UniProt P11362)
# experiment.summary: phosphorylation enrichment, bacterial display (enrichment ratio); higher = better substrate or ligand; peptides without Tyr show the background
assay.metric: phosphorylation enrichment
Please give only the number in your answer, with no unit.

Please review the following examples before continuing.
record.sequence: CTSIHYNYMCN [TP53_Y234_T231S]
reported.measurement: 0.67
--
record.sequence: AGREIYESEKC [TTN_Y4424_D4427E]
reported.measurement: 0.535
--
record.sequence: REVVNYVQKRS [RMI1_Y450_N455S]
reported.measurement: 0.65
--
record.sequence: HLEKKYVRRDS [CSF1R_Y708]
reported.measurement: 2.42
--
record.sequence: TRSYKCLLLSM [NF1_Y491_Y491C]
reported.measurement: 0.375

Could you share what phosphorylation enrichment was measured for PSGPTYRGAVP [ASAH1_Y43] , tested on FGFR1 (UniProt P11362)?
0.58

Another: DRLAVYIDRVR [LMNA_Y45]
0.418

Could you do the same for VLAHKYHGGGG [HBB_Y146_A141V] , please?
0.349

Request: DYLEKYYKFGS [NNMT_Y24]
0.486

Moving on to DRFANYIEKVR [DES_Y122]
0.419

Param item: TAGFSYEKWEI [TEC_Y360]
0.533
